# ASSAY_SYSTEM: Caspase-3 (Homo sapiens, UniProt P42574)
# Sequence (P42574 whole entry): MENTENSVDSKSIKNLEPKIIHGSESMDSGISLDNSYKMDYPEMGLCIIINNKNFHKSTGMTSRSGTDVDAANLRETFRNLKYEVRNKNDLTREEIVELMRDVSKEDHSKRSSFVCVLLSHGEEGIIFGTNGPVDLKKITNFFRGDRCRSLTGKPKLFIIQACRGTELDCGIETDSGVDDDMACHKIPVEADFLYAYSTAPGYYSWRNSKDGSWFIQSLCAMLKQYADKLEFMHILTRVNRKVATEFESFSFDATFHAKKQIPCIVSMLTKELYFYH
# RUN_DESCRIPTION: Inhibition of human recombinant caspase-3 assessed as Ac-DEVD-AMC conversion to 7-amino-4-methylcoumarin incubated for 10 mins prior to substrate addition measured after 10 mins by spectrophotometric analysis
pIC50: −log10 of the molar value.
ATTRIBUTE_MEASURED: pIC50

Use these answered entries as a reference point.
COC[C@@H]1CCCN1S(=O)(=O)c1ccc2c(c1)C(=O)C(=O)N2CC[C@@H](O)CO; 6.73
COC[C@@H]1CCCN1S(=O)(=O)c1ccc2c(c1)C(=O)C(=O)N2CC[C@@H](O)CF; 7.59
COC[C@@H]1CCCN1S(=O)(=O)c1ccc2c(c1)C(=O)C(=O)N2CC[C@H](O)CO; 6.97

(a) COC[C@@H]1CCCN1S(=O)(=O)c1ccc2c(c1)C(=O)C(=O)N2CC[C@@H](F)CO
(b) COC[C@@H]1CCCN1S(=O)(=O)c1ccc2c(c1)C(=O)C(=O)N2CC[C@H](O)CF
Record comparison, field pIC50: mark the lower of a and b . Record your answer as the label of the chosen record.
a
(a: 7.25, b: 7.63)
